assay method text: Rat pharmacokinetics, i.v. bolus
Format: in vivo, Sprague-Dawley rats
condition notes: rat, in vivo, iv, 45 mg/kg, female Sprague-Dawley rats, single 45 mg/kg slow i.v. bolus, plasma, LC-MS/MS, noncompartmental, n = 3 to 5/dose
Starred links: 1 amine or outer side, 2 acyl side, 3 side chain; linkers in the order of their positions; H or OH if unused. Positions of bridges follow the written chain, without caps; N, C: chain ends. Non-standard residues stand in square brackets, D forms with d. Residues, ends and D or L forms follow the SMILES beside them. *: point of attachment. Orn(4R-OH,5R-OCH2CH2NMe3+) = C[N+](C)(C)CCO[C@@H](N[*:3])[C@H](O)C[C@H](N[*:1])C(=O)[*:2]; pTerphenylCO(4''-OnC5H11) = CCCCCOc1ccc(-c2ccc(-c3ccc(C(=O)*)cc3)cc2)cc1; hTyr(3S-OH,4S-OH) = N[C@H](C(=O)O)[C@H](O)[C@@H](O)c1ccc(O)cc1; Pro(3S-OH,4S-Me) = C[C@H]1CN[C@H](C(=O)O)[C@H]1O; Hyp = O=C(O)[C@@H]1C[C@@H](O)CN1
readout type: Cmax
Give the figure together with its unit, number first.

Item: CCCCCOc1ccc(-c2ccc(-c3ccc(C(=O)N[C@H]4C[C@@H](O)[C@@H](OCC[N+](C)(C)C)NC(=O)[C@@H]5[C@@H](O)[C@@H](C)CN5C(=O)[C@H]([C@@H](C)O)NC(=O)[C@H]([C@H](O)[C@@H](O)c5ccc(O)cc5)NC(=O)[C@@H]5C[C@@H](O)CN5C(=O)[C@H]([C@@H](C)O)NC4=O)cc3)cc2)cc1 [CD101] ({pTerphenylCO(4''-OnC5H11)}-[Orn(4R-OH,5R-OCH2CH2NMe3+)]T[Hyp][hTyr(3S-OH,4S-OH)]T[Pro(3S-OH,4S-Me)]; lactam 1-C) | Cmax: 115 µg/mL

###

assay method text: Rat pharmacokinetics, i.v. bolus
Format: in vivo, Sprague-Dawley rats
condition notes: rat, in vivo, iv, 45 mg/kg, female Sprague-Dawley rats, single 45 mg/kg slow i.v. bolus, plasma, LC-MS/MS, noncompartmental, n = 3 to 5/dose
Starred links: 1 amine or outer side, 2 acyl side, 3 side chain; linkers in the order of their positions; H or OH if unused. Positions of bridges follow the written chain, without caps; N, C: chain ends. Non-standard residues stand in square brackets, D forms with d. Residues, ends and D or L forms follow the SMILES beside them. *: point of attachment. Orn(4R-OH,5R-OCH2CH2NMe3+) = C[N+](C)(C)CCO[C@@H](N[*:3])[C@H](O)C[C@H](N[*:1])C(=O)[*:2]; pTerphenylCO(4''-OnC5H11) = CCCCCOc1ccc(-c2ccc(-c3ccc(C(=O)*)cc3)cc2)cc1; hTyr(3S-OH,4S-OH) = N[C@H](C(=O)O)[C@H](O)[C@@H](O)c1ccc(O)cc1; Pro(3S-OH,4S-Me) = C[C@H]1CN[C@H](C(=O)O)[C@H]1O; Hyp = O=C(O)[C@@H]1C[C@@H](O)CN1
readout type: AUC(0-inf) (µg·h/mL)
Write it as a number; the unit µg·h/mL goes unstated.

Looking up CCCCCOc1ccc(-c2ccc(-c3ccc(C(=O)N[C@H]4C[C@@H](O)[C@@H](OCC[N+](C)(C)C)NC(=O)[C@@H]5[C@@H](O)[C@@H](C)CN5C(=O)[C@H]([C@@H](C)O)NC(=O)[C@H]([C@H](O)[C@@H](O)c5ccc(O)cc5)NC(=O)[C@@H]5C[C@@H](O)CN5C(=O)[C@H]([C@@H](C)O)NC4=O)cc3)cc2)cc1 [CD101] ({pTerphenylCO(4''-OnC5H11)}-[Orn(4R-OH,5R-OCH2CH2NMe3+)]T[Hyp][hTyr(3S-OH,4S-OH)]T[Pro(3S-OH,4S-Me)]; lactam 1-C) , I see its AUC(0-inf) listed as 1510
